Hey, just so you know, these numbers are from paper PMC10486429.

Assay: Radiolytic stability of 177Lu-DOTA-ALBs in PBS (HPLC)
Assay type: physicochemical
Conditions: with L-ascorbic acid, 4 h, room temperature, 100 MBq/500 µL PBS
MEASURED PROPERTY: Intact radioligand (%)
Write the number in % without appending the unit.

What value of Intact radioligand has been recorded for this entry: O=C(O)CN1CCN(CC(=O)O)CCN(CC(=O)NCCC(=O)N[C@@H](CCCCNC(=O)CCCc2ccc(I)cc2)C(=O)O)CCN(CC(=O)O)CC1.[177Lu] [[^177Lu]Lu-DOTA-ALB-1] 99

How about O=C(O)CN1CCN(CC(=O)O)CCN(CC(=O)NCCC(=O)N[C@@H](CCCCNC(=O)c2ccc(CNC(=O)CCCc3ccc(I)cc3)cc2)C(=O)O)CCN(CC(=O)O)CC1.[177Lu] [[^177Lu]Lu-DOTA-ALB-3] ? 99

How about O=C(O)CN1CCN(CC(=O)O)CCN(CC(=O)NCCC(=O)N[C@@H](CCCCNC(=O)CCCCc2ccc(I)cc2)C(=O)O)CCN(CC(=O)O)CC1.[177Lu] [[^177Lu]Lu-DOTA-ALB-24] ? 99

How about O=C(O)CN1CCN(CC(=O)O)CCN(CC(=O)NCCC(=O)N[C@@H](CCCCNC(=O)c2ccc(CNC(=O)CCCCc3ccc(I)cc3)cc2)C(=O)O)CCN(CC(=O)O)CC1.[177Lu] [[^177Lu]Lu-DOTA-ALB-25] ? 99

* * *

System: KB tumor-bearing athymic nude mice
Assay: Biodistribution of 177Lu-RedFols in KB tumor-bearing mice
Assay type: in vivo, mouse
Settings: 1 h p.i.
Intestines, accumulated activity values, listed per item
Write the number in % IA/g without appending the unit.

Known Intestines, accumulated activity results, listed for orientation:
What value of Intestines, accumulated activity has been recorded for this entry: CN1c2c(nc(N)[nH]c2=O)NCC1CNc1ccc(C(=O)NC(CCC(=O)NC(CCCCNC(=O)CN2CCN(CC(=O)[O-])CCN(CC(=O)[O-])CCN(CC(=O)[O-])CC2)C(=O)NC(CCCCNC(=O)c2ccc(CNC(=O)CCCCc3ccc(I)cc3)cc2)C(=O)O)C(=O)O)cc1.[177Lu+3] (stereo not drawn) [[^177Lu]Lu-6S-RedFol-25] 1.3

How about CN1c2c(nc(N)[nH]c2=O)NC[C@H]1CNc1ccc(C(=O)N[C@@H](CCC(=O)N[C@@H](CCCCNC(=O)CN2CCN(CC(=O)O)CCN(CC(=O)O)CCN(CC(=O)O)CC2)C(=O)N[C@@H](CCCCNC(=O)c2ccc(CNC(=O)CCCc3ccc(I)cc3)cc2)C(=O)O)C(=O)O)cc1 [[^177Lu]Lu-6R-RedFol-3, metal not drawn] ? 2.6

How about CN1c2c(nc(N)[nH]c2=O)NC[C@H]1CNc1ccc(C(=O)N[C@@H](CCC(=O)N[C@@H](CCCCNC(=O)CN2CCN(CC(=O)O)CCN(CC(=O)O)CCN(CC(=O)O)CC2)C(=O)N[C@@H](CCCCNC(=O)c2ccc(CNC(=O)CCCCc3ccc(I)cc3)cc2)C(=O)O)C(=O)O)cc1 [[^177Lu]Lu-6R-RedFol-25, metal not drawn] ? 1.7

How about CN1c2c(nc(N)[nH]c2=O)NCC1CNc1ccc(C(=O)NC(CCC(=O)NC(CCCCNC(=O)CN2CCN(CC(=O)[O-])CCN(CC(=O)[O-])CCN(CC(=O)[O-])CC2)C(=O)NC(CCCCNC(=O)c2ccc(CNC(=O)CCCc3ccc(I)cc3)cc2)C(=O)O)C(=O)O)cc1.[177Lu+3] (stereo not drawn) [[^177Lu]Lu-6S-RedFol-3] ? 2.3

Now consider a different molecule.
What value of Intestines, accumulated activity has been recorded for this entry: CN1c2c(nc(N)[nH]c2=O)NC[C@H]1CNc1ccc(C(=O)N[C@@H](CCC(=O)N[C@@H](CCCCNC(=O)CN2CCN(CC(=O)O)CCN(CC(=O)O)CCN(CC(=O)O)CC2)C(=O)N[C@@H](CCCCNC(=O)CCCCc2ccc(I)cc2)C(=O)O)C(=O)O)cc1 [[^177Lu]Lu-6R-RedFol-24, metal not drawn] 1.2
